Taken from ChEMBL document CHEMBL1126300.

test system: L1210; assay: In vitro inhibition of L1210 mouse leukemia cell growth in culture; assay type: functional, cell-based
pIC50: −log10 of the molar value.
measurement-label: pIC50

1) C#CCN(Cc1ccc2nc(N)cc(C)c2c1)c1ccc(C(=O)N[C@@H](CCC(=O)O)C(=O)O)cc1 = 5.40
2) C#CCN(Cc1ccc2nc(C)cc(C)c2c1)c1ccc(C(=O)N[C@@H](CCC(=O)O)C(=O)O)cc1 = < 4.00
3) C#CCN(Cc1ccc2nc(CC)cc(Cl)c2c1)c1ccc(C(=O)N[C@@H](CCC(=O)O)C(=O)O)cc1 = < 4.00
4) C#CCN(Cc1ccc2nc(C)ccc2c1)c1ccc(C(=O)N[C@@H](CCC(=O)O)C(=O)O)cc1 = < 4.00

Qu. Fill in: pIC50 of "C#CCN(Cc1ccc2nc(C)cc(OC)c2c1)c1ccc(C(=O)N[C@@H](CCC(=O)O)C(=O)O)cc1" is ___
Ans. < 4.00

Qu. Fill in: pIC50 of "C#CCN(Cc1ccc2nc(C)cc(Cl)c2c1)c1ccc(C(=O)N[C@@H](CCC(=O)O)C(=O)O)cc1" is ___
Ans. 5.10

Qu. Fill in: pIC50 of "C#CCN(Cc1ccc2nc(C)cc(O)c2c1)c1ccc(C(=O)N[C@@H](CCC(=O)O)C(=O)O)cc1" is ___
Ans. < 4.00

Qu. Fill in: pIC50 of "C#CCN(Cc1ccc2nc(C)cc(Br)c2c1)c1ccc(C(=O)N[C@@H](CCC(=O)O)C(=O)O)cc1" is ___
Ans. 4.85

---

system: L1210; experiment: In vitro inhibition of L1210 mouse leukemia cell growth in culture; assay type: functional, cell-based
pIC50: −log10 of the molar value.
measurement-label: pIC50

1) C#CCN(Cc1ccc2nc(C)cc(Br)c2c1)c1ccc(C(=O)N[C@@H](CCC(=O)O)C(=O)O)c(F)c1 = 6.00
2) C#CCN(Cc1ccc2nc(Cl)cc(Cl)c2c1)c1ccc(C(=O)N[C@@H](CCC(=O)O)C(=O)O)cc1 = 5.10

[1] C#CCN(Cc1ccc2nc(C)cc(Cl)c2c1)c1ccc(C(=O)N[C@@H](CCC(=O)O)C(=O)O)c(F)c1
[2] Cc1cc(Cl)c2cc(CN(C)c3ccc(C(=O)N[C@@H](CCC(=O)O)C(=O)O)cc3)ccc2n1
Qu. Two entries are listed, 1 and 2 . Which one carries the higher pIC50? Return value: the label identifying the chosen record.
Ans. 1

---

tested on: L1210; assay: In vitro inhibition of L1210 mouse leukemia cell growth in culture; type: functional, cell-based
measurement-label: IC50 (nM)

1) C#CCN(Cc1ccc2nc(Cl)cc(Cl)c2c1)c1ccc(C(=O)N[C@@H](CCC(=O)O)C(=O)O)c(F)c1 = 1000

[A] C#CCN(Cc1ccc2nc(N)cc(Cl)c2c1)c1ccc(C(=O)N[C@@H](CCC(=O)O)C(=O)O)cc1
[B] C#CCN(Cc1ccc2nc(N)cc(Cl)c2c1)c1ccc(C(=O)N[C@@H](CCC(=O)O)C(=O)O)c(F)c1
Qu. Two entries are listed, A and B . Which one carries the higher IC50? Return value: the label identifying the chosen record.
Ans. A
(A: 11000 nM, B: 2900 nM)

---

target: Thymidylate synthase (Mus musculus, UniProt P07607); experiment: In vitro inhibitory activity against thymidylate synthase from L1210 mouse leukemia cells
Sequence (P07607 whole entry): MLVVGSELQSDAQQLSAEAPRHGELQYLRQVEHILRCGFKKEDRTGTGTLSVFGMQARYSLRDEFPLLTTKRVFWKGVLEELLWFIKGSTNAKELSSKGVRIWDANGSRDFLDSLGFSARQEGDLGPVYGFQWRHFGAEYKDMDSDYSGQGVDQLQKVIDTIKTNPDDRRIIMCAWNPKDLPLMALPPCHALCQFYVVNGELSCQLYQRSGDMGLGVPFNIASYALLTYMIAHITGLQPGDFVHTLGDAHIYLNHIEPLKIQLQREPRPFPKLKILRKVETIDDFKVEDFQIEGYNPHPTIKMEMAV
measurement-label: IC50 (µM)

Reference set (3 entries):
1. C#CCN(Cc1ccc2nc(Cl)cc(C)c2c1)c1ccc(C(=O)N[C@@H](CCC(=O)O)C(=O)O)cc1 = 0.12
2. CCN(Cc1ccc2nc(C)cc(Cl)c2c1)c1ccc(C(=O)N[C@@H](CCC(=O)O)C(=O)O)cc1 = 0.74
3. C#CCN(Cc1ccc2nc(C)cc(Br)c2c1)c1ccc(C(=O)N[C@@H](CCC(=O)O)C(=O)O)cc1 = 0.22

[A] C#CCN(Cc1ccc2nc(C)ccc2c1)c1ccc(C(=O)N[C@@H](CCC(=O)O)C(=O)O)cc1
[B] C#CCN(Cc1ccc2nc(CF)cc(Cl)c2c1)c1ccc(C(=O)N[C@@H](CCC(=O)O)C(=O)O)cc1
[C] C#CCN(Cc1ccc2nc(NC(C)=O)cc(Cl)c2c1)c1ccc(C(=O)N[C@@H](CCC(=O)O)C(=O)O)cc1
Qu. Order the 3 compounds from highest to lowest IC50. Give the order by naming the labels one after another as requested.
Ans. A, C, B
(A: 7.9 µM, C: 1.2 µM, B: 0.62 µM)

[a] C#CCN(Cc1ccc2nc(OC)cc(Cl)c2c1)c1ccc(C(=O)N[C@@H](CCC(=O)O)C(=O)O)cc1
[b] C#CCN(Cc1ccc2nc(N)cc(Cl)c2c1)c1ccc(C(=O)N[C@@H](CCC(=O)O)C(=O)O)cc1
Qu. Hey, which is lower on measured IC50, a or b ? Return value: the label identifying the chosen record.
Ans. b

---

target: Thymidylate synthase (Mus musculus, UniProt P07607); experiment: In vitro inhibitory activity against thymidylate synthase from L1210 mouse leukemia cells
measurement-label: IC50 (nM)

1) C#CCN(Cc1ccc2nc(CC)cc(Cl)c2c1)c1ccc(C(=O)N[C@@H](CCC(=O)O)C(=O)O)cc1 = 990

[I] C#CCN(Cc1ccc2nc(C)cc(SC)c2c1)c1ccc(C(=O)N[C@@H](CCC(=O)O)C(=O)O)cc1
[II] C#CCN(Cc1ccc2nc(Cl)ccc2c1)c1ccc(C(=O)N[C@@H](CCC(=O)O)C(=O)O)cc1
Qu. Hey, which is lower on measured IC50, I or II ? Return value: the label identifying the chosen record.
Ans. II
